# study_system: Bevacizumab (Homo sapiens)
# Construct: fused on or other part: humanised anti-VEGF-A VH domain N-terminal of the gamma-1 constant region (engineered, no UniProt entry)
# experimental_details: Microtiter plate chromatography of resins, Bevacizumab whole IgG (bound, yield, selectivity)
# Assay type: binding, humanized
# test_settings: mass of whole IgG Bevacizumab eluted / mass injected
Listing of recorded Bevacizumab IgG Yield (%) by entry.
Only the number, expressed in %, is required.

CCOc1ccc(NC(=O)c2cc(-c3ccco3)n(C)n2)cc1C(=O)NCCCN [Ligand L29]
84
COc1ccc(NC(=O)c2cc(-c3ccco3)n(C)n2)cc1C(=O)NCCCN [Ligand L1]
91
COc1ccc(NC(=O)c2nc(-c3ccco3)no2)cc1C(=O)NCCCN [Ligand L55]
95
COc1ccc(NC(=O)c2nn(C)c3ccccc23)cc1C(=O)NCCOCCOCC(=O)NCCOCCOCC(=O)NCCCN [Ligand L61]
92
C#Cc1cncc(C(=O)Nc2ccc(OC)c(C(=O)NCCCN)c2)c1 [Ligand L24]
97

(Q) # returns recorded Bevacizumab IgG Yield (%) (system: Bevacizumab (Homo sapiens)) for COc1ccc(NC(=O)c2nc3cccnc3[nH]2)cc1C(=O)NCCCN [Ligand L41]
(A) 100

(Q) Give recorded Bevacizumab IgG Yield (%) with Bevacizumab (Homo sapiens) for the following molecule: COc1ccc(NC(=O)c2nc3ccccc3[nH]2)cc1C(=O)NCCCN [Ligand L47]
(A) 97

(Q) Field: Bevacizumab IgG Yield (%) (Bevacizumab (Homo sapiens)). Entry: COc1ccc(NC(=O)c2cn(C)c3ccccc23)cc1C(=O)NCCCN [Ligand L25]
(A) 95

(Q) Request: Bevacizumab IgG Yield (%), test system Bevacizumab (Homo sapiens), entry COc1ccc(NC(=O)c2onc3ccccc23)cc1C(=O)NCCCN [Ligand L31]
(A) 96

###

# study_system: Bevacizumab (Homo sapiens)
# Construct: fused on or other part: humanised anti-VEGF-A VH domain N-terminal of the gamma-1 constant region (engineered, no UniProt entry)
# experimental_details: Microtiter plate chromatography of resins, Bevacizumab whole IgG (bound, yield, selectivity)
# Type: binding, humanized
# test_settings: mass of whole IgG Bevacizumab eluted / mass injected
# Protocol: Resins were assessed in packed mode by microtiter plate chromatography. For each column, approximately 30 μl of resin were transferred to a 384-well filter plate and sealed with appropriate top frits. Columns were equilibrated with 6.7 column volumes (cv) of phosphate buffered saline (0.15 M NaCl, 20 mM sodium phosphate, pH 7.3; PBS) prior to injection. […] Effluent fractions were collected in 384-well plates and concentrations of protein analyzed by Bradford assay. […]
Recorded Bevacizumab IgG Yield (%), one value per entry.
Numeric only. Scale: %

Sample answers from the record:
CCn1nc(C(=O)Nc2ccc(OC)c(C(=O)NCCCN)c2)c2ccccc21
100
COc1ccc(NC(=O)c2cncc(-c3cccs3)c2)cc1C(=O)NCCCN
96
COc1ccc(NC(=O)c2cncc(C3CC3)c2)cc1C(=O)NCCCN
98
COc1ccc(NC(=O)c2cn3ccsc3n2)cc1C(=O)NCCCNC(=O)CC[C@H](N)C(=O)NCCCNC(=O)c1cc(NC(=O)c2cn3ccsc3n2)ccc1OC
93
Cn1nc(C(=O)Nc2nc(C(=O)NCCCN)cs2)cc1-c1cccs1
99
Cn1nc(C(=O)Nc2cccc(C(=O)NCCCN)c2)cc1-c1ccco1
94
COc1ccc(NC(=O)c2nn(C)c3ncccc23)cc1C(=O)NCCCN
100

(Q) Would you mind telling me what Bevacizumab IgG Yield (%) value was observed for `COc1ccc(NC(=O)c2cncc(-c3cc4ccccc4s3)c2)cc1C(=O)NCCCN` ?
(A) 89
